# EXPERIMENT_SUMMARY: photoluminescence quantum yield (fraction); solvent given as SMILES
# REPORTED_CONDITIONS: in Cc1ccccc1
# binarize photoluminescence quantum yield: threshold 0.1 inclusive, high side Satisfied, low side Not satisfied

Please review the following examples before continuing.
INSERT INTO results (compound, class) VALUES
  ('CCn1c2ccccc2c2cc(/C=C/c3cccc[n+]3CCCS(=O)(=O)[O-])ccc21', 'Not satisfied'),
  ('N#C/C(=N/Nc1ccc(C#N)cc1)c1nc(-c2ccccc2)cs1', 'Not satisfied'),
  ('COC(=O)c1ccc(C2=C3C=CC(C)=[N+]3[B-](F)(F)n3c(C)ccc32)cc1', 'Satisfied'),
  ('Cc1ccc(N2C(c3ccccc3[N-]S(=O)(=O)c3ccc(C)cc3)=[NH+]C(c3ccccc3)C2c2ccccc2)cc1 (configuration not stated)', 'Satisfied');

Query string: Textbook exercise: given the entry `CCc1c(C)[nH]c(C2=[N+]3C(=Cc4c(C)c(CC)c(C)n4[B-]3(F)F)c3ccccc32)c1C` , state whether its photoluminescence quantum yield is greater than or equal to 0.1.
Result string: Satisfied

Query string: Given the entry `Cc1ccc(C2=C3C=CC(C#Cc4ccccc4)=[N+]3[B-](F)(F)n3c(Cl)ccc32)cc1` , answer whether its photoluminescence quantum yield meets or surpasses 0.1.
Result string: Satisfied

Query string: // inclusive: photoluminescence quantum yield at least 0.1? input: `CC1=CC(C)=[N+]2C1=C(c1ccc(-c3ccc(O)cc3)s1)c1c(C)cc(C)n1[B-]2(F)F`
Result string: Not satisfied

Query string: # check: photoluminescence quantum yield of `CC(C)(C)c1ccc2c(c1)[nH]c1c3[nH]c4cc(C(C)(C)C)ccc4c3c3nsnc3c21` is greater than or equal to 0.1
Result string: Satisfied

Query string: Can `CCCC1(CCC)c2cc(-c3ccc(-c4ccccc4)cc3)ccc2-c2ccc(-c3ccc4c(c3)C(CCC)(CCC)c3cc(-c5ccc(-c6ccccc6)cc5)ccc3-4)cc21` be said to have photoluminescence quantum yield at or above 0.1?
Result string: Satisfied

Query string: Given `CC(C)(C)c1ccc2c(c1)c1cc(C(C)(C)C)ccc1n2-c1cc(N2c3ccccc3C(c3ccccc3)(c3ccccc3)c3ccccc32)cc(-n2c3ccc(C(C)(C)C)cc3c3cc(C(C)(C)C)ccc32)c1C#N` , state whether its photoluminescence quantum yield is at least 0.1.
Result string: Satisfied

Query string: Identify whether the reported photoluminescence quantum yield of the following compound is 0.1 or greater: O=[N+]([O-])c1ccc(F)cc1C1CC(c2cccc3ccccc23)=NN1c1ccccc1 (configuration not stated)
Result string: Satisfied

Query string: Hi team, for `FC(F)(F)c1ccc(-c2nnc(-c3cc(-c4nnc(-c5ccc(C(F)(F)F)cc5)o4)c(-n4c5ccccc5c5ccccc54)cc3-n3c4ccccc4c4ccccc43)o2)cc1` , is the recorded photoluminescence quantum yield at or above 0.1?
Result string: Not satisfied

Query string: Textbook exercise: given the entry `COc1ccc(/C=C/C=C/C=C/c2ccc([N+](=O)[O-])cc2)cc1` , state whether its photoluminescence quantum yield is greater than or equal to 0.1.
Result string: Satisfied

Query string: Entry `O=C1c2ccccc2-c2ccc(N3CCOCC3)c3cccc1c23` : is its photoluminescence quantum yield no less than 0.1?
Result string: Satisfied

Query string: I'd appreciate it if you could say whether `CCn1c2cc(OC)ccc2c2c3nsnc3c3c4ccc(OC)cc4n(CC)c3c21` has photoluminescence quantum yield at least equal to 0.1.
Result string: Satisfied

Query string: Check if photoluminescence quantum yield >= 0.1 (inclusive). Item: `COc1ccc(C2=C3C(C)=CC(C)=[N+]3[B-](F)(F)n3c(/C=C/c4ccc(N(C)C)cc4)cc(C)c32)cc1`
Result string: Satisfied

Query string: Hi, just wondering whether `Nc1ccc2c3c(cccc13)C(=O)c1ccccc1-2` shows photoluminescence quantum yield of 0.1 or higher.
Result string: Satisfied

* * *

# EXPERIMENT_SUMMARY: photoluminescence quantum yield (fraction); solvent given as SMILES
# REPORTED_CONDITIONS: in CCCCOC(C)=O
Each entry below carries its reported photoluminescence quantum yield.

INSERT INTO assay_data (structure_smiles_string, endpoint_value) VALUES
  ('Cc1cc(C(F)(F)F)nc2c1ccc1nc(-c3ccc(Cl)cc3)cn12', 0.76),
  ('CC1=C(C(C)(C)C)C(C)=[N+]2C1=C(C)c1c(C)c(C(C)(C)C)c(C)n1[B-]2(F)F', 0.43);

Lab note: `CN(C)c1ccc(/C=C/C=C2\CC/C(=C\c3ccc(N(C)C)cc3)C2=O)cc1` gave photoluminescence quantum yield of 0.16

Entry `CN(C)c1ccc(/C=C2\CC/C(=C\c3ccc(C#N)cc3)C2=O)cc1` — recorded photoluminescence quantum yield = 0.14

* * *

# EXPERIMENT_SUMMARY: photoluminescence quantum yield (fraction); solvent given as SMILES
# REPORTED_CONDITIONS: in ClCCl
A collection of compounds and their measured photoluminescence quantum yield
Enter the number alone.

Record `COc1cc(OC)cc(C2=C3C(C)=C(I)C(/C=C/c4ccsc4)=[N+]3[B-](F)(F)n3c(/C=C/c4ccsc4)c(I)c(C)c32)c1` , field photoluminescence quantum yield: 0.02

Lab book: photoluminescence quantum yield of `c1ccc2c(-c3ccc4sc5ccccc5c4c3)c3ccccc3cc2c1` noted as 0.7

Kindly note the recorded photoluminescence quantum yield for `COc1ccc(N(c2ccccc2)c2ccc3ccc4c(N(c5ccccc5)c5ccc(OC)cc5)ccc5ccc2c3c54)cc1` , which is 0.46

get_value(item= `CN(C)c1ccc(/C=C/c2cccnn2)cc1` , readout=photoluminescence quantum yield) returns 0.02

Sample `N#Cc1ccc(N(c2ccc(C#N)cc2)c2ccc3c4cccc5c(N(c6ccc(C#N)cc6)c6ccc(C#N)cc6)ccc(c6cccc2c63)c54)cc1` ; photoluminescence quantum yield observed: 0.91

Recorded photoluminescence quantum yield (compound `Cc1ccccc1-c1c2ccc(=[N+]3CCN(C(=O)OC(C)(C)C)CC3)cc-2oc2cc(N3CCN(C(=O)OC(C)(C)C)CC3)ccc12` ): 0.47

// field: photoluminescence quantum yield; key: `Cc1cc(=O)cc(-c2ccc(-c3nc4ccccn4c3NC3CCCCC3)cc2)o1` ; value = 0.019

Measured photoluminescence quantum yield, `COc1ccc(-c2ccc(/C=C/c3cnc4ccccc4n3)cc2)cc1` : 0.42

Kindly note the recorded photoluminescence quantum yield for COC(=O)C(Cc1ccc2oc(-c3ccc(N(C)C)cc3)nc2c1)NC(=O)OC(C)(C)C (centres undefined) , which is 1

* * *

# EXPERIMENT_SUMMARY: photoluminescence quantum yield (fraction); solvent given as SMILES
# REPORTED_CONDITIONS: in ClCCl
So basically: is photoluminescence quantum yield under 0.4? Then criterion met. Not under? Then criterion not met.

INSERT INTO results (structure_smiles_string, class) VALUES
  ('CCCCCCCCCCCCc1ccc(-c2cc(C)[o+]c(C)c2)cc1', 'criterion met'),
  ('COc1ccccc1C1=[N+]2C(=Cc3c4c(c(-c5ccccc5OC)n3[B-]2(F)F)C2CCC4CC2)C2=C1C1CCC2CC1', 'criterion not met'),
  ('FC(F)(F)c1cc2n(n1)[B-]1(c3ccccc3Oc3ccccc31)[n+]1ccc3ccccc3c1-2', 'criterion met');

Query string: # strict comparison: is reported photoluminescence quantum yield < 0.4? input = `c1ccc(N(c2ccccc2)c2ccc3c4cccc5c(N(c6ccccc6)c6ccccc6)ccc(c6cccc2c63)c54)cc1`
Result string: criterion not met

Query string: Determine whether this compound shows photoluminescence quantum yield lower than 0.4 (ties excluded): `CC(C)(C)c1ccc2c(c1)c1cc(C(C)(C)C)ccc1n2-c1ccc(C#Cc2ccc(C#Cc3ccc(-n4c5ccc(C(C)(C)C)cc5c5cc(C(C)(C)C)ccc54)cc3)cc2)cc1`
Result string: criterion not met

Query string: photoluminescence quantum yield under 0.4? Item: `CCCCN1C(=O)c2ccc3c4ccc5c6c(cc(-c7ccc(C(=C(c8ccccc8)c8ccccc8)c8ccccc8)cc7)c(c7ccc(c2c37)C1=O)c64)C(=O)N(CCCC)C5=O`
Result string: criterion met

Query string: Regarding `Cc1ccccc1-c1cc(-c2ccc(N3c4ccccc4C(C)(C)c4ccccc43)cc2)nc(-c2ccccc2)n1` , kindly confirm whether its photoluminescence quantum yield is beneath 0.4.
Result string: criterion not met

* * *

# EXPERIMENT_SUMMARY: photoluminescence quantum yield (fraction); solvent given as SMILES
# REPORTED_CONDITIONS: in CS(C)=O
// classify: if (photoluminescence quantum yield < 0.2) criterion met else criterion not met

INSERT INTO assay_data (compound, class) VALUES
  ('O=C1C=CC2=Cc3ccccc3B(O)N12', 'criterion met'),
  ('CC(C)[Si]1(C(C)C)c2cc(C=C(C#N)C#N)ccc2-c2ccc(N(C)C)cc21', 'criterion not met'),
  ('NS(=O)(=O)c1ccc(N2N=C(c3ccc(O)cc3)CC2c2ccc(Br)cc2)cc1 (stereo not drawn)', 'criterion not met'),
  ('CCCN1/C(=C/C=C(/C=C/c2sc3ccccc3[n+]2CCC)c2ccc([N+](=O)[O-])cc2)Sc2ccccc21', 'criterion met'),
  ('COc1cc(OC)cc(C2=C3C(C)=C(I)C(/C=C/c4ccsc4)=[N+]3[B-](F)(F)n3c(/C=C/c4ccsc4)c(I)c(C)c32)c1', 'criterion met');

Query string: Given `C[N+]1=C(/C=C/C=C2/N(CCC[N+](C)(C)C)c3ccc(S(=O)(=O)[O-])cc3C2(C)C)C(C)(C)c2ccccc21` , is recorded photoluminescence quantum yield strictly lower than 0.2?
Result string: criterion met

Query string: For this compound, is photoluminescence quantum yield lower than 0.2? `CCCCCn1c2ccc(S(=O)(=O)O)cc2c(=O)c2cc(S(=O)(=O)O)ccc21`
Result string: criterion not met

Query string: Is it true that photoluminescence quantum yield reported for `CC1(C)C(/C=C/c2cc3ccc(O)cc3oc2=O)=[N+](CCCS(=O)(=O)[O-])c2ccc(S(=O)(=O)O)cc21` is less than 0.2?
Result string: criterion met
